measuredOn: EP4 receptor (Homo sapiens (Human), UniProt P35408)
Sequence (P35408 whole entry): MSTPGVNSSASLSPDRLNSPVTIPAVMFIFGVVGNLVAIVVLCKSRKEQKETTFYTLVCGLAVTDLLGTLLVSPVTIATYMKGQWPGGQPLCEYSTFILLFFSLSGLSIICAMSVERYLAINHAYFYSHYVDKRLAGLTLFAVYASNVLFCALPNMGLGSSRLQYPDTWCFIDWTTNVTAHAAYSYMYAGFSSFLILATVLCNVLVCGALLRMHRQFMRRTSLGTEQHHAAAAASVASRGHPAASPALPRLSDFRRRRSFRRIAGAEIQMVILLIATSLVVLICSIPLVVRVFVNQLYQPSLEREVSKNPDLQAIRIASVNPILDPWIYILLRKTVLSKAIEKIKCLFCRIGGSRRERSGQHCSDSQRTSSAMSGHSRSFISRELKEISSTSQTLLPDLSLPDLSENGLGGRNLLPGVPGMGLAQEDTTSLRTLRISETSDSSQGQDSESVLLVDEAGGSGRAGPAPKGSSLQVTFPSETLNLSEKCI
experimentalEndpoint: Ki (nM)

Known Ki results, listed for orientation:
## Input Report measured Ki on EP4 receptor (Homo sapiens (Human), UniProt P35408); entry: Cc1sc(C)c(C(=O)N[C@@H](C)c2ccc(C(=O)NS(C)(=O)=O)cc2)c1Cc1ccc(C(F)(F)F)cc1 [Example 18]
## Output 308

## Input Report measured Ki on EP4 receptor (Homo sapiens (Human), UniProt P35408); entry: Cc1sc(C)c(C(=O)N[C@@H](C)c2ccc(C(=O)O)cc2)c1Cc1ccc(C(F)(F)F)cc1 [Example 12]
## Output 1.4

## Input Report measured Ki on EP4 receptor (Homo sapiens (Human), UniProt P35408); entry: C[C@H](NC(=O)c1c(Cl)sc(Cl)c1Cc1cccc(Cl)c1)c1ccc(C(=O)O)cc1 [Example 7]
## Output 1.3

## Input Report measured Ki on EP4 receptor (Homo sapiens (Human), UniProt P35408); entry: CC(NC(=O)c1sc(Cl)cc1Cc1cccc(Cl)c1)c1ccc(-c2nn[nH]n2)cc1 (stereo not shown) [Example 2]
## Output 2.6

## Input Report measured Ki on EP4 receptor (Homo sapiens (Human), UniProt P35408); entry: Cc1sc(C)c(C(=O)N[C@@H](C)c2ccc(C(=O)O)cc2)c1Cc1cccc(C(F)(F)F)c1 [Example 24]
## Output 2.4

[I] O=C(O)c1ccc(CNC(=O)c2c(Cl)sc(Cl)c2Cc2cccc(Cl)c2)cc1 [Example 22]
[II] Cc1sc(C)c(C(=O)N[C@@H](C)c2ccc(C(=O)NS(=O)(=O)c3ccccc3)cc2)c1Cc1ccc(C(F)(F)F)cc1 [Example 19]
## Input Between the entries labeled I and II , whose measured Ki is lower? Pick one and reply with its label.
## Output I

----------
measuredOn: UniProtKB P35408
protocolDescription: Prostanoid receptor binding assay, hEP4 (membranes of transfected HEK 293(ebna) cells)
conditionDetails: radioligand binding, HEK 293(ebna) membranes, 10 mM MES/KOH pH 6.0
experimentalEndpoint: Ki (nM)

## Input Report measured Ki on UniProtKB P35408; entry: `Cc1sc(C)c(C(=O)NC2(c3ccc(C(=O)O)cc3)CC2)c1Cc1ccc(C(F)(F)F)cc1`
## Output 0.5

[I] Cc1sc(C)c(C(=O)N[C@@H](C)c2ccc(C(=O)O)cc2)c1Cc1cccc(Cl)c1
[II] C[C@H](NC(=O)c1csc(Br)c1Cc1cccc(Cl)c1)c1ccc(C(=O)O)cc1
[III] C[C@H](NC(=O)c1c(Cl)sc(Cl)c1C(=O)c1cccc(Cl)c1)c1ccc(C(=O)O)cc1
## Input Hello, I need these entries ordered by Ki, highest reading first. Thanks! Rank the items, then write their labels in that order.
## Output III, I, II
(III: 7.4 nM, I: 3.1 nM, II: 0.71 nM)
